# target.system: T1, full length human GLP-1R with N-terminal FLAG tag and C-terminal GFP tag, on CHO cells (human, UniProt P43220 24-463)
# T1 construct: whole, on cells; the cell line itself is tied to UniProt P43220; also called FLAG-GLP-1R-GFP; CHO-GLP-1R
# assay.info: flow cytometry titration, CHO GLP1R cells
test.readout: EC50 (nM)
Quick reminder: number only, in nM, skip the unit.

{"binder": "GLP1R-221-009 (antibody, V domains shown, IgG) VH: QVQLVESGGGVVQPGRSLRLSCAASGFIFSNYGMHWVRQAPGKGLEWVAVISDEGSNKYYADSVKGRFTISRDNSKNTLYLQMNSLRAEDTAVYYCAKHMSMQEGAVTGAGQAAKEFIAWLVKGRVRADLVGDAFDVWGQGTLVTVSS VL: QSVLTQPPSVSAAPGQKVTISCSGSSSNIGNQYVSWYQQLPGTAPKLLIYDDHKRPSGIPDRFSGSKSGTSATLGITGLQTGDEADYYCGTWDTSLSVGEFGGGTKLTVL", "EC50 [nM]": 12.5}

Record request: EC50 value, item GLP1R-221-017 (antibody, V domains shown, IgG) VH: QVQLVESGGGVVQPGRSLRLSCAASGFTFSDYGVHWVRQAPGKGLEWVAFISYDESNKYYADSVKGRFTISRDNSKNTLYLQMNSLRAEDTAVYYCAKHMSMQEGAVTGEYQAAKEFIAWLVKGRVRADLVGDAFDVWGQGTLVTVSS VL: QSVLTQPPSVSAAPGQKVTISCSGSSSNIGNTYVSWYQQLPGTAPKLLIYDDYKRPSGIPDRFSGSKSGTSATLGITGLQTGDEADYYCATWDATLNTGVFGGGTKLTVL 27.6

Cool, now GLP1R-221-066 (antibody, V domains shown, IgG) VH: QVQLVESGGGVVQPGRSLRLSCAASGFTFNNYAMHWVRQAPGKGLEWVAVISYDRSNEYYADSVKGRFTISRDNSKNTLYLQMNSLRAEDTAVYYCAKHMSMQEGAVTGEGQAIKEFIAWLVKGRVRADLVGDAFDVWGQGTLVTVSS VL: QSVLTQPPSVSAAPGQKVTISCSGSSSNIGNNYLSWYQQLPGTAPKLLIYENNKRPSGIPDRFSGSKSGTSATLGITGLQTGDEADYYCGIWDRSLSAWVFGGGTKLTVL 57.4

Cool, now GLP1R-221-092 (antibody, V domains shown, IgG) VH: QVQLVESGGGVVQPGRSLRLSCAASGFIFNNYGMHWVRQAPGKGLEWVAFISYGGSNKYYADSVKGRFTISRDNSKNTLYLQMNSLRAEDTAVYYCAKHMSMQEGAVTGEGQAVKEFIAWLVKGRVRADLVGDAFDVWGQGTLVTVSS VL: QSVLTQPPSVSAAPGQKVTISCSGTTSNIANNFVSWYQQLPGTAPKLLIYDNNKRPPGIPDRFSGSKSGTSATLGITGLQTGDEADYYCGTWDTSLSVGMFGGGTKLTVL 13.3

Cool, now GLP1R-221-033 (antibody, V domains shown, IgG) VH: QVQLVESGGGVVQPGRSLRLSCAASGFSFSNYAMHWVRQAPGKGLEWVAVISHDRSNKYYADSVKGRFTISRDNSKNTLYLQMNSLRAEDTAVYYCAKHMSMQEGAVTGEGQAAKDFIAWLVKGRVRADLVGDAFDVWGQGTLVTVSS VL: QSVLTQPPSVSAAPGQKVTISCSGSSSNIGNEYVSWYQQLPGTAPKLLIYDNNKRVSGIPDRFSGSKSGTSATLGITGLQTGDEADYYCATWDTSLNVGVFGGGTKLTVL 9.04

Cool, now GLP1R-221-084 (antibody, V domains shown, IgG) VH: QVQLVESGGGVVQPGRSLRLSCAASGFAFSNYGMHWVRQAPGKGLEWVAVISSDENNKYYADSVKGRFTISRDNSKNTLYLQMNSLRAEDTAVYYCAKHMSMQEGAVTGEMQAAKEFIAWLVKGRVRADLVGDAFDVWGQGTLVTVSS VL: QSVLTQPPSVSAAPGQKVTISCSGSSSNIADNYVSWYQQLPGTAPKLLIYENNRRPSGIPDRFSGSKSGTSATLGITGLQTGDEADYYCGTWDVSLSVGMFGGGTKLTVL 4.09

Cool, now GLP1R-3 (antibody, human IgG2, lambda, V domains shown, full length human IgG2; also called GLP1R01-3) VH: QVQLVESGGGVVQPGRSLRLSCAASGFTFSSYGMHWVRQAPGKGLEWVSFISYDESNKYYADSVKGRFTISRDNSKNTLYLQMNSLRAEDTAVYYCAKHMSMQEGAVTGEGQAAKEFIAWLVKGRVRADLVGDAFDVWGQGTLVTVSS VL: QSVLTQPPSVSAAPGQKVTISCSGSSSNIADNYVSWYQQLPGTAPKLLIYDNNKRPSGIPDRFSGSKSGTSATLGITGLQTGDEADYYCGTWDNYLGAGVFGGGTKLTVLG 11.5
